# Experimental System: Glucocorticoid receptor (Homo sapiens, UniProt P04150)
# Sequence (P04150 whole entry): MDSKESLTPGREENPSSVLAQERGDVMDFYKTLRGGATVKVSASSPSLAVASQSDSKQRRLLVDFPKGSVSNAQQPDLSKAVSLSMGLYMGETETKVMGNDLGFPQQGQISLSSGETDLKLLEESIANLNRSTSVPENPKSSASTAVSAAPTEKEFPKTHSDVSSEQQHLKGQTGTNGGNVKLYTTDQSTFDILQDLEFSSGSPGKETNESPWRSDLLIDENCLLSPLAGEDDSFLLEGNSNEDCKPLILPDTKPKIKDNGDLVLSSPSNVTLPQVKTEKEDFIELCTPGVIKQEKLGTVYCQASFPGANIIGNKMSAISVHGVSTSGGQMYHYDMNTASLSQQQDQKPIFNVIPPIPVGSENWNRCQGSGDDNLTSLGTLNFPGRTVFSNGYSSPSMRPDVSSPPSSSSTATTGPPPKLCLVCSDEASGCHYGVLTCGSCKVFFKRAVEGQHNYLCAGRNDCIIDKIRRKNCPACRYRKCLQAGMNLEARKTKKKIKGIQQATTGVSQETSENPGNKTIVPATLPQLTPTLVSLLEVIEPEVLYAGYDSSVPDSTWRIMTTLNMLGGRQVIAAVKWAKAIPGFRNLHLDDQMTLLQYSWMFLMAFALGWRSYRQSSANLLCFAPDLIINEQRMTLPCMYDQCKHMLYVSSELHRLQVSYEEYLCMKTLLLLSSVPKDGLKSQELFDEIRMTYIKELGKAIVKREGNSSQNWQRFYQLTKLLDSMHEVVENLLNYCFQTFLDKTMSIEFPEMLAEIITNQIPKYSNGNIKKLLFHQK
# Experimental Details: Agonist activity at human GR expressed in NHDF cells assessed as inhibition of IL-6 production by ELISA relative to Dexamethasone
# Assay type: functional, cell-based
pIC50: −log10 of the molar value.
Measurement Label: pIC50

Known results for molecules:
> print(dat)
                                   molecule  recorded.measurement
1  CC(=O)/C=C/c1c(-c2cccc3cc[nH]c23)cc(C)c2c1[C@H](C)[C@@H](O)C(C)(C)N2 (racemic)                < 6.00
2  Cc1c2c(cc(-c3cccc4cc[nH]c34)c1C(F)(F)F)[C@H](C)[C@@H](O)C(C)(C)N2 (racemic)                < 6.00
3  Cc1cc(-c2cccc3cc[nH]c23)c(C)c2c1NC(C)(C)[C@H](O)[C@H]2C (racemic)                  8.03
4  C[C@H]1c2c(cc(Cl)c(-c3cccc4cc[nH]c34)c2Cl)NC(C)(C)[C@@H]1O (racemic)                < 6.00

Query string: Value lookup for pIC50; key = C=Cc1c(-c2cccc3cc[nH]c23)cc(C)c2c1[C@H](C)[C@@H](O)C(C)(C)N2 (racemic)
Result string: < 6.00
